System: MOLT-4 leukemia
procedure summary: NCI-60 one-dose screen, 48 h (100 = growth as untreated, 0 = no growth, -100 = all killed)
measurement conditions: 10 µM unless noted
This is part of a sample that, as a whole, favours compounds with a hit. Of some 83,000 tested, about 20% had one in any assay.

{"columns": ["compound", "growth (%)"],
 "data": [
  ["CCNC(=O)Oc1ccc(/C(=C(/C)Cc2ccc(OC)cc2)c2ccc(OCCN(CC)CC)cc2)cc1", 14.7],
  ["CCN(C(=O)N1CCN(c2cc3c(cc2F)c(=O)c(C(=O)O)cn3C2CC2)CC1)c1nc(-c2ccccc2)cs1", 14.7],
  ["CC/C(=C(/c1ccc(O)cc1)c1ccc(OCCN2CCCCCC2)cc1)c1ccc(Cl)cc1", 17],
  ["CC(=O)N1N=C(c2ccc(Nc3nc(Nc4ccc(F)cc4)nc(Nc4ccc(F)cc4)n3)cc2)CC1c1ccccc1 (centres undefined)", 70.2],
  ["O=C1OCC2=C1C(c1cccc([N+](=O)[O-])c1)c1cc3c(cc1N2CCO)CCC3 (centres undefined)", 14],
  ["CCCCCCCC/C=C\\CCCCCCCCOc1ccccc1CC(=O)NCC[N+]1(C)CCOCC1", 83.7],
  ["COC1=CC(c2ccc[nH]2)=N/C1=C\\c1[nH]c(C)c(C(=O)Oc2ccccc2)c1C", 3.87],
  ["C=C[C@]1(C)C=C2CC[C@@H]3C(C)(C)C(=O)CC[C@@]3(C)[C@@H]2CC1", 109],
  ["CCCCSc1ccc2nc(-c3ccc(OCCCN=C(N)N)cc3)cn2c1", 53.1],
  ["Cc1ccc(S(=O)(=O)OC[C@@]2(C)CC[C@]3(C)CC[C@]4(C)C(=CC[C@@H]5[C@@]6(C)CCCNC(C)(C)[C@@H]6CC[C@]54C)[C@@H]3C2)cc1", -42.1],
  ["CS(=O)(=O)Nc1cc(-c2ccc3ncnc(Nc4ccc(F)c(Cl)c4)c3c2)cnc1Cl", -19.9],
  ["CCc1c2c(nc3ccc(OCc4ccc(B5OC(C)(C)C(C)(C)O5)cc4)cc13)-c1cc3c(c(=O)n1C2)COC(=O)[C@]3(O)CC", 8.97],
  ["COc1ccc(C(=O)N/N=C/c2ccc(O)cc2O)cc1Nc1ccnc(C(F)(F)F)c1", 23.4],
  ["COc1ccc(-c2c[nH]c(C(=O)O)c2-c2cc(OC)c(OC)c(OC)c2)cc1", 56.4],
  ["CCCCCO/N=C\\c1c2c(O)c3c(O)c(C)c4c(c3c1O)C(=O)C(C)(O/C=C\\C(OC)C(C)C(OC(C)=O)C(C)C(O)C(C)C(O)C(C)/C=C\\C=C(\\C)C(=O)N2)O4 (centres undefined)", 14.4],
  ["CCCCCC#CC1OC23CCCCC2C(C#N)(C(=N)O3)C1(C#N)C#N (centres undefined)", 99.9],
  ["C=C(CN1CC=CCC1)[C@@H]1CC[C@]2(COC(C)=O)CC[C@]3(C)[C@H](CC[C@@H]4[C@@]5(C)CC[C@H](O)C(C)(C)[C@@H]5CC[C@]43C)[C@@H]12", 92.4],
  ["COC(=O)N/N=C/c1c[n+]([O-])c2ccccc2[n+]1[O-]", 104],
  ["Cn1ccnc1CN1CCSC(C(=O)Nc2ccccc2)C1 (centres undefined)", 94.3],
  ["COc1ccc(C2=C(CN)C(O)NC(=NCC(=O)c3ccc4ccccc4c3)N2)cc1 (centres undefined)", 98],
  ["O=S(=O)(Nc1cc(Sc2cccc3cccnc23)c(O)c2ccccc12)c1ccc(F)cc1", -18.4],
  ["Nc1nc2ccccc2c2c(=O)c3ccc(Cl)cc3sc12", 93.6],
  ["COc1cc(/C=C/C(=O)c2ccc(NC(=O)CSc3nnc(-c4cc(-c5ccccc5)nc5ccccc45)n3-c3ccccc3)cc2)cc(OC)c1OC", 52.7],
  ["C[C@]12CCc3c(ccc4cc(O)ccc34)[C@@H]1C[C@H](O)[C@@H]2O", 102]
]}

----------
Tested on: A498 renal
procedure summary: NCI-60 one-dose screen, 48 h (100 = growth as untreated, 0 = no growth, -100 = all killed)
measurement conditions: 10 µM unless noted
Compounds without any hit were thinned out: in the full panel of roughly 83,000, 20% have a hit.
assay metric: growth (%)

{"columns": ["compound", "tgt", "assay metric", "value measured"],
 "data": [
  ["C/C(=C(\\c1ccc(OCCN2CCOCC2)cc1)c1ccc(OC(=O)C2CCCCC2)cc1)c1ccc(Cl)cc1", "A498 renal", "growth", 92.6],
  ["O=C(Cn1cc(CN2CCN(c3ccnc4cc(Cl)ccc34)CC2)nn1)Nc1cccc([N+](=O)[O-])c1", "A498 renal", "growth", 90.7],
  ["COC1/C=C/OC2(C)Oc3c(C)c(O)c4c(O)c(c(C=NOC(c5ccccc5)c5ccccc5)c(O)c4c3C2=O)NC(=O)/C(C)=C/C=C/C(C)C(O)C(C)C(O)C(C)C(OC(C)=O)C1C (centres undefined)", "A498 renal", "growth", 58.5],
  ["O=C1/C(=C/c2cn(-c3ccccc3)nc2-c2ccccc2)SC(=S)N1c1ccccc1", "A498 renal", "growth", 91.1]
]}

----------
// values below are reported growth
Test system: UACC-257 melanoma
procedure summary: NCI-60 one-dose screen, 48 h (100 = growth as untreated, 0 = no growth, -100 = all killed)
measurement conditions: 10 µM unless noted
Description: Cells are grown in 96 well plates and exposed to the test compound for 48 hours. Compounds are tested at a single concentration, which is 10^-5 M for most compounds. The reported endpoint is percent growth (GI% or GIPRCNT), where numbers from 0 - 100% represent growth inhibition, and numbers from -100% - 0 represent cell death. For example, a value of 40 represents 60% growth inhibition. A value of 0 means no net growth occurred over the course of the experiment. […]
This is part of a sample that, as a whole, favours compounds with a hit. Of some 83,000 tested, about 20% had one in any assay.
assay metric: growth (%)

{"columns": ["compound", "assay metric", "value measured"],
 "data": [
  ["N=C(N)c1ccc(-c2ccc(-c3ccc(Cl)c(Cl)c3)s2)cc1", "growth", 96.6],
  ["Cc1ccc(C(=O)N(CCCN)[C@@H](c2nc3cc(Cl)ccc3c(=O)n2Cc2ccccc2)C(C)C)cc1", "growth", -56.6],
  ["COc1cc(/C=C2/C=C(c3ccc(C(C)(C)C)cc3)N(CCc3ccc(S(N)(=O)=O)cc3)C2=O)cc(OC)c1OC", "growth", 62.2],
  ["COC1/C=C/OC2(C)Oc3c(C)c(O)c4c(O)c(c(C=NOC(c5ccccc5)c5ccccc5)c(O)c4c3C2=O)NC(=O)/C(C)=C/C=C/C(C)C(O)C(C)C(O)C(C)C(OC(C)=O)C1C (stereo unspecified)", "growth", 12.2],
  ["CCNC(=O)Oc1ccc(/C(=C(/C)Cc2ccc(OC)cc2)c2ccc(OCCN(CC)CC)cc2)cc1", "growth", -56.3],
  ["O=c1oc2c(Br)cc(Br)cc2cc1-c1cc(-c2ccc(-c3cc(-c4cc5cc(Br)cc(Br)c5oc4=O)nc(-c4cc5cc(Br)cc(Br)c5oc4=O)c3)cc2)cc(-c2cc3cc(Br)cc(Br)c3oc2=O)n1", "growth", 109],
  ["COc1ccc2c(c1)CC[C@@H]1[C@@H]2CC[C@]2(C)C3C(=CCC4C(=O)N(c5ccccc5)C(=O)C43)C[C@@H]12 (stereo partly specified)", "growth", 86.1],
  ["CCCCC#Cc1c(/C=C(\\CCCC)SCC)n(C)c(=O)[nH]c1=O", "growth", 98.9],
  ["OCc1cc(CN2CCCCC2)c(O)c2ncccc12", "growth", 77.8],
  ["CCCN1C(=O)/C(=c2\\sc3n(c2=O)C2C(NN=3)N(CC)C(=O)N2CC)c2ccccc21 (stereo unspecified)", "growth", 24.5],
  ["COc1cc(C=O)ccc1Oc1ccc([N+](=O)[O-])cc1[N+](=O)[O-]", "growth", 90]
]}

----------
Test system: K-562 leukemia
procedure summary: NCI-60 one-dose screen, 48 h
measurement conditions: 10 µM unless noted
About 83,000 compounds went through this panel and 20% of them were active in at least one assay; those are over-represented in the sample as a whole. Calls of active or inactive are those of the source. How the source made its calls: active means growth percent below 10; inactive means the rest.
Outcomes: 1 (active), -1 (inactive)

{"columns": ["entry smiles", "label value"],
 "data": [
  ["N=C(N)c1ccc(-c2ccc(-c3ccc(F)cc3)s2)nc1", 1],
  ["COC1=CC(c2ccc[nH]2)=N/C1=C\\c1[nH]c(C)c(C(=O)Oc2ccccc2)c1C", 1],
  ["CN1CCN(c2ccc(Nc3ncc(C(N)=O)c(NCCCNC(=O)C4CCC4)n3)cc2)CC1", -1],
  ["Cn1c(=O)c2c(nc(Nc3cc(=O)[nH]c(=O)[nH]3)n2Cc2ccccc2)n(C)c1=O", -1]
]}
